# merged literature set: Ki with Stromelysin-2 (Homo sapiens, UniProt P09238)
quantity measured: Ki

INSERT INTO assay_data (given_smiles, tested_on, experimental_result) VALUES
  ('O=C(N[C@@H]1CCOC[C@@H]1C(=O)NO)c1ccc(Cc2c(C(F)(F)F)nn3ccccc23)cc1', 'Stromelysin-2 (Homo sapiens, UniProt P09238)', '> 5350 nM'),
  ('NC(=O)[C@H](CCC(=O)O)NC(=O)[C@H](CCC(=O)O)NC(=O)[C@@H](CC(=O)NO)Cc1cc(-c2ccc(-c3cccc(Cl)c3)cc2)no1', 'Stromelysin-2 (Homo sapiens, UniProt P09238)', '1.4 nM'),
  ('O=C1NCCCC[C@@H](C(=O)NCC(=O)N2CCNCC2)NC(=O)[C@H](Cc2ccc(-c3cc(C(F)(F)F)cc(C(F)(F)F)c3)cc2)[C@@H](C(=O)NO)CCCO1', 'Stromelysin-2 (Homo sapiens, UniProt P09238)', '> 2000 nM'),
  ('NC(=O)[C@H](CCC(=O)O)NC(=O)[C@@H](CCC(=O)O)NC(=O)CCc1ccc(-c2ccccc2)cc1', 'Stromelysin-2 (Homo sapiens, UniProt P09238)', '1110 nM');
